Recorded viability, T/C values for a group of molecules are listed next.
System: 282377-053-R-J1-PDC complex spheroids, viability;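 further: spheroids exposed to compounds for 7 days before readout; percent of vehicle DMSO control viability with 100% = untreated-like growth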
Assay: Anticancer human tumor 282377-053-R-J1-PDC patient-derived colon adenocarcinoma cell line growth inhibition [GQUAD]
Conditions: second compound 3.16 µM; first compound 3.16 µM; stronger effect = lower value
Source text: DNA G-quadruplex Stabilizer Agents in Combinations in Complex Spheroids A high-throughput screen of multi-cell type tumor spheroids was designed to identify active combinations of DNA G-quadruplex stabilizer agents and targeted small molecules. […] Compounds. […] If the clinical Cmax for an agent had not been determined, the highest concentration tested was 10 microM. […]
Field: numeric (%). Do not append units.

Use these answered entries as a reference point.
* Nc1ccn(C2OC(CO)C(O)C2(F)F)c(=O)n1 (stereo unspecified) + Cc1cnc(CNC(=O)c2c(=O)c3ccc(N4CCCN(C)CC4)nc3n3c2sc2ccccc23)cn1 | 22.4
* COc1cccc2c1C(=O)c1c(O)c3c(c(O)c1C2=O)CC(O)(C(=O)CO)CC3OC1CC(N)C(O)C(C)O1 (stereo unspecified) + Cc1[nH]c2ccc(F)cc2c1-c1nc2c3cccnc3c3ncccc3c2[nH]1 | 9.5
* CC1COCCN1c1cc(C2(O)CC3CCC(C2)O3)c2cnn(-c3ccn[nH]3)c2n1 (stereo unspecified) + Cc1[nH]c2ccc(F)cc2c1-c1nc2c3cccnc3c3ncccc3c2[nH]1 | 3.99
* CC(C)(O)C1CCC(Nc2ccc3ncc(-c4cccc(C(F)(F)F)c4)n3n2)CC1 (stereo unspecified) + Cc1cnc(CNC(=O)c2c(=O)c3ccc(N4CCCN(C)CC4)nc3n3c2sc2ccccc23)cn1 | 0.13
* Cc1cccc(N(C)C(=O)C2C(O)CCN2c2nc(C)cc(C(F)(F)F)c2C#N)c1 (stereo unspecified) + CN(C)c1ccc(Nc2c3ccc(NC(=O)CCN4CCCC4)cc3nc3cc(NC(=O)CCN4CCCC4)ccc23)cc1 | 128
* CC1COCCN1c1cc(C2(S(C)(=N)=O)CC2)nc(-c2ccnc3[nH]ccc23)n1 (stereo unspecified) + CN(C)c1ccc(Nc2c3ccc(NC(=O)CCN4CCCC4)cc3nc3cc(NC(=O)CCN4CCCC4)ccc23)cc1 | 64.4
* CC(=O)O[C@H]1C(=O)[C@@]2(C)[C@H]([C@H](OC(=O)c3ccccc3)[C@]3(O)C[C@H](OC(=O)[C@H](O)[C@@H](NC(=O)c4ccccc4)c4ccccc4)C(C)=C1C3(C)C)[C@]1(OC(C)=O)CO[C@@H]1C[C@@H]2O + Cc1[nH]c2ccc(F)cc2c1-c1nc2c3cccnc3c3ncccc3c2[nH]1 | 0.11
* COc1ncnc(C2CC2)c1-c1ncc2cnn(Cc3ccc(-c4nc(C(F)(F)F)cn4C(C)C)cc3)c2n1 + Cc1[nH]c2ccc(F)cc2c1-c1nc2c3cccnc3c3ncccc3c2[nH]1 | 63.2
* O=C(c1cc(Cc2n[nH]c(=O)c3ccccc23)ccc1F)N1CCN(C(=O)C2CC2)CC1 + CN(C)c1ccc(Nc2c3ccc(NC(=O)CCN4CCCC4)cc3nc3cc(NC(=O)CCN4CCCC4)ccc23)cc1 | 86.5
* CC(C)(O)C1CCC(Nc2ccc3ncc(-c4cccc(C(F)(F)F)c4)n3n2)CC1 (stereo unspecified) + CN(C)c1ccc(Nc2c3ccc(NC(=O)CCN4CCCC4)cc3nc3cc(NC(=O)CCN4CCCC4)ccc23)cc1 | 23.4

Asked: Give a short answer stating reported viability, T/C for CC(C)(O)C1CCC(Nc2ccc3ncc(-c4cccc(C(F)(F)F)c4)n3n2)CC1 (stereo unspecified) + Cc1[nH]c2ccc(F)cc2c1-c1nc2c3cccnc3c3ncccc3c2[nH]1 .
Given back: 100

Asked: Give a short answer stating reported viability, T/C for C#Cc1c(F)ccc2cc(O)cc(-c3ncc4c(N5CC6CCC(C5)N6)nc(OCC56CCCN5CC(F)C6)nc4c3F)c12 (stereo unspecified) + Cc1cnc(CNC(=O)c2c(=O)c3ccc(N4CCCN(C)CC4)nc3n3c2sc2ccccc23)cn1 .
Given back: 51.7

Asked: Give a short answer stating reported viability, T/C for COc1cc(C2c3cc4c(cc3C(OC3OC5COC(C)OC5C(O)C3O)C3COC(=O)C23)OCO4)cc(OC)c1O (stereo unspecified) + CN(C)c1ccc(Nc2c3ccc(NC(=O)CCN4CCCC4)cc3nc3cc(NC(=O)CCN4CCCC4)ccc23)cc1 .
Given back: 86

Asked: Give a short answer stating reported viability, T/C for Cc1cccc(N(C)C(=O)C2C(O)CCN2c2nc(C)cc(C(F)(F)F)c2C#N)c1 (stereo unspecified) + Cc1[nH]c2ccc(F)cc2c1-c1nc2c3cccnc3c3ncccc3c2[nH]1 .
Given back: 75.5

Asked: Give a short answer stating reported viability, T/C for C=CCn1c(=O)c2cnc(Nc3ccc(N4CCN(C)CC4)cc3)nc2n1-c1cccc(C(C)(C)O)n1 + Cc1[nH]c2ccc(F)cc2c1-c1nc2c3cccnc3c3ncccc3c2[nH]1 .
Given back: 12.7

Asked: Give a short answer stating reported viability, T/C for CC1COCCN1c1cc(C2(S(C)(=N)=O)CC2)nc(-c2ccnc3[nH]ccc23)n1 (stereo unspecified) + Cc1[nH]c2ccc(F)cc2c1-c1nc2c3cccnc3c3ncccc3c2[nH]1 .
Given back: 31.9

Asked: Give a short answer stating reported viability, T/C for C=CCn1c(=O)c2cnc(Nc3ccc(N4CCN(C)CC4)cc3)nc2n1-c1cccc(C(C)(C)O)n1 + Cc1cnc(CNC(=O)c2c(=O)c3ccc(N4CCCN(C)CC4)nc3n3c2sc2ccccc23)cn1 .
Given back: 26.2

Asked: Give a short answer stating reported viability, T/C for CC1COCCN1c1cc(-c2ccnn2C)c2ccnc(-c3ccn[nH]3)c2n1 (stereo unspecified) + CN(C)c1ccc(Nc2c3ccc(NC(=O)CCN4CCCC4)cc3nc3cc(NC(=O)CCN4CCCC4)ccc23)cc1 .
Given back: 38.6
